# Procedure Details: Phase IIA clinical trial (Part C): pharmacokinetics in patients
# Assay type: in vivo
# Stated Conditions: both sexes, human, plasma, 400 mg single oral dose, read-out: Cmax (Mean ± SD, ng/mL)
# Excerpt: […]
Endpoint Name: Cmax

Molecule	Endpoint Name	Obs Value
C[C@H](Oc1ccc(Br)cc1-c1ccon1)C(=O)O [NMD670]	Cmax	21700 ng/mL

----------
# Procedure Details: Phase I clinical trial Part A: pharmacokinetics
# Type: in vivo
# Stated Conditions: male, human, plasma, po, 50 mg, 50 mg single oral dose; healthy male subjects; read-out: Cmax (Mean ± SD, ng/mL)
Endpoint Name: Cmax (ng/mL)

Smiles Text	Endpoint Name	Obs Value
C[C@H](Oc1ccc(Br)cc1-c1ccon1)C(=O)O	Cmax	1900
